Each entry below carries its reported Emax.
Target: MC4r (Homo sapiens)
Sequence (P32245 whole entry): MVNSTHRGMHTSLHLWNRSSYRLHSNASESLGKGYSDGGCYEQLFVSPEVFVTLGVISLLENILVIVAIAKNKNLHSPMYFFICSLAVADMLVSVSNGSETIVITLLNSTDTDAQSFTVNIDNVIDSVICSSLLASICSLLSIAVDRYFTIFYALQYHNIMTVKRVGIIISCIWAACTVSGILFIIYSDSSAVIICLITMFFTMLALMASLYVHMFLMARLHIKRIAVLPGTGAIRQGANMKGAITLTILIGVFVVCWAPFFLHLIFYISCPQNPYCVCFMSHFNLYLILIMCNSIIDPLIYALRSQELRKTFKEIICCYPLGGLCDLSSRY
Test: cAMP functional study in human MC4r expression system approximating maximal physiologic receptor densities
Type: cell-based
Set-up: host or cells: TREx-293
Settings: low receptor density human MC4r system; read-out: relative efficacy, compared to NDP-α-MSH
parameter-measured: Emax (%)

>>> value_reported("CC(=O)N1CCC(N(CC(C)C)N2CCN(C(=O)[C@@H](Cc3ccc(Cl)cc3)NC(=O)C3(C)CCCN3)CC2)CC1 (stereo partly shown)")
13
>>> value_reported("CC(C)CN(C1CCN(C(=O)CO)CC1)N1CCN(C(=O)[C@@H](Cc2ccc(Cl)cc2)NC(=O)C(C)(C)N)CC1")
22
>>> value_reported("CCNC(=O)N1CCC(N(CC(C)C)N2CCN(C(=O)[C@@H](Cc3ccc(Cl)cc3)NC(=O)C(C)(C)N)CC2)CC1")
28
>>> value_reported("CCC(N)(CC)C(=O)N[C@H](Cc1ccc(Cl)cc1)C(=O)N1CCN(N(CC(C)C)C2CCN(C(C)=O)CC2)CC1")
34

Entry source: patent US20210198201A1
